# Target: HDAC9 enzyme (Homo sapiens, UniProt Q9UKV0)
# Construct: transducing full length HDAC9 gene into Sf-9 insect cells; made in house; host or cells: Sf-9 insect cells
# Sequence (Q9UKV0 whole entry, species assumed): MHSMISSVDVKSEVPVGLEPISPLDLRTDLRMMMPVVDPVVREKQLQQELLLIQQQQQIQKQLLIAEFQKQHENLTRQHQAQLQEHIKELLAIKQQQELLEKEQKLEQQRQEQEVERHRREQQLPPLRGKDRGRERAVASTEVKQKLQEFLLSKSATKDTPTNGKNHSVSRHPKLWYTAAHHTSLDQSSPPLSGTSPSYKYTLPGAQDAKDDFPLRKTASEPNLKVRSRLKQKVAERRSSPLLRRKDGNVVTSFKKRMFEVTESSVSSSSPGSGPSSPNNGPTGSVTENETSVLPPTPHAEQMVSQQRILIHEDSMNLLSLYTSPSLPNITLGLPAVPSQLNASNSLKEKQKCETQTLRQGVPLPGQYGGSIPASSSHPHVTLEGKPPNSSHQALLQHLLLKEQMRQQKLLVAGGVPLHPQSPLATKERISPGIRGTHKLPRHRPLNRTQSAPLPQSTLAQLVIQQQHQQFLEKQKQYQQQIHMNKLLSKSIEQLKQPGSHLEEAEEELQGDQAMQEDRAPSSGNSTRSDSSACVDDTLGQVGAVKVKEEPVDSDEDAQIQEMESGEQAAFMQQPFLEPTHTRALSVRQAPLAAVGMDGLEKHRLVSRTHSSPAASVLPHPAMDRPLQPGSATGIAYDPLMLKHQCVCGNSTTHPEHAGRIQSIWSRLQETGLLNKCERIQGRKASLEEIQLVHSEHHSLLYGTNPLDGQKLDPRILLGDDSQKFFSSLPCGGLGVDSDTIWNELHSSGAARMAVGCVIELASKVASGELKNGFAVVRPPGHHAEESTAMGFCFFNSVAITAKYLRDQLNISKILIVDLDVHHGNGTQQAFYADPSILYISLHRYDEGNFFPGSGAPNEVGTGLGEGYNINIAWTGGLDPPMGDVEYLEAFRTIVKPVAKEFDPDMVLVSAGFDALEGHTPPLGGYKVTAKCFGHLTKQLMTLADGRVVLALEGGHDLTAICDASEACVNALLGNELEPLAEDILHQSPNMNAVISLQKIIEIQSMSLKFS
# Experimental details: HDAC9 Enzyme Inhibitory Assay (HDAC-Glo class IIa)
# Assay type: biochemical
# Condition info: 1 μM test compound; wells without enzyme = 100% inhibition; read-out: HDAC9 inhibitory rate (%) (1 μM)
Reported metric: inhibition at 1 µM (%)

As a guide, the following entries are already answered.
INSERT INTO assay_data (compound, target, reported_metric, readout_value) VALUES
  ('O=C(N[C@@H]1CCCC[C@H]1N1Cc2ccc(-c3noc(C(F)(F)F)n3)cc2C1=O)[C@@H]1CC1(F)F', 'HDAC9 enzyme (Homo sapiens, UniProt Q9UKV0)', 'inhibition at 1 µM', 51),
  ('CC1(C)CC1C(=O)N[C@@H]1CCCC[C@H]1N1Cc2ccc(-c3noc(C(F)(F)F)n3)cc2C1=O (stereo partly shown)', 'HDAC9 enzyme (Homo sapiens, UniProt Q9UKV0)', 'inhibition at 1 µM', 57);

(A) CC(=O)N1CC[C@@H](N2Cc3cc(-c4noc(C(F)(F)F)n4)ccc3C2=O)[C@H](c2ccccc2)C1 (relative stereo)
(B) CC(=O)N[C@@H]1CCCC[C@H]1N1Cc2ccc(-c3noc(C(F)(F)F)n3)cc2C1=O (relative stereo)
(C) O=C(N[C@@H]1CCCC[C@H]1N1Cc2ccc(-c3noc(C(F)(F)F)n3)cc2C1=O)N1CC2CC1CO2 (stereo partly shown)
Prompt line: Hey, quick one: sort these by inhibition at 1 µM, low to high? Lab note: record answer as labels in requested order.
Response line: C, B, A
(C: 8%, B: 43%, A: 94%)

(I) O=C1CCC(C(=O)N[C@@H]2CCCC[C@H]2N2Cc3ccc(-c4noc(C(F)(F)F)n4)cc3C2=O)=NN1
(II) O=C1c2cc(-c3noc(C(F)(F)F)n3)ccc2CN1[C@@H]1CCNC[C@H]1c1ccc(F)c(Cl)c1 (relative stereo)
Prompt line: Lab note: check whether I or II shows the higher recorded inhibition at 1 µM. Returns: label corresponding to the selected item.
Response line: II

====

# Target: HDAC1 enzyme (Homo sapiens, UniProt Q13547)
# Construct: transducing full length HDAC1 and HDAC6 genes into Sf-9 insect cells; GST; purchased SignalChem; host or cells: Sf-9 insect cells
# Sequence (Q13547 whole entry): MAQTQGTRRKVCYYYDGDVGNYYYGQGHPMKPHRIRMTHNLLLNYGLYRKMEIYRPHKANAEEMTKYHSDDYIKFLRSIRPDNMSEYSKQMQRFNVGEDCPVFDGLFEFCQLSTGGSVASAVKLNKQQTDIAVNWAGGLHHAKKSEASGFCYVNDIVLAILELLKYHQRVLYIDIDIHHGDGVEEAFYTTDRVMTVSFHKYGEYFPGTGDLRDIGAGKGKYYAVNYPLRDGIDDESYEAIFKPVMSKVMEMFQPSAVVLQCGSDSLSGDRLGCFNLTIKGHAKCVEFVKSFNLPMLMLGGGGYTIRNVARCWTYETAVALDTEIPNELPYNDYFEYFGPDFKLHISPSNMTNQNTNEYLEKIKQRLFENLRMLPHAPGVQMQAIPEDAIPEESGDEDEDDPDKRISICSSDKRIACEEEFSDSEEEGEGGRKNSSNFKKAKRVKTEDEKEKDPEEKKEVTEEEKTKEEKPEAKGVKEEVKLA
# Experimental details: HDAC1/6 Enzyme Inhibitory Assay (HDAC-Glo I/II Assay kit), HDAC1
# Assay type: biochemical
# Condition info: 1 μM test compound; wells without enzyme = 100% inhibition; read-out: HDAC1 inhibitory rate (%) (1 μM)
Reported metric: inhibition at 1 µM (%)

(a) O=C(N[C@@H]1CCCC[C@H]1N1Cc2ccc(-c3noc(C(F)(F)F)n3)cc2C1=O)N1CC2CCC(C1)O2
(b) CC1(C(=O)N[C@@H]2CCCC[C@H]2N2Cc3ccc(-c4noc(C(F)(F)F)n4)cc3C2=O)COC1
(c) CC1(C(=O)N[C@@H]2CCCC[C@H]2N2Cc3ccc(-c4noc(C(F)(F)F)n4)cc3C2=O)CCC1
(d) N[C@@H]1CCCC[C@H]1N1Cc2ccc(-c3noc(C(F)(F)F)n3)cc2C1=O [Example 28]
Prompt line: Order them by inhibition at 1 µM, ascending: the molecules above. Lab note: record answer as labels in requested order.
Response line: a, d, c, b
(a: 2%, d: 3%, c: 8%, b: 15%)

====

# Target: HDAC1 enzyme (Homo sapiens, UniProt Q13547)
# Construct: transducing full length HDAC1 and HDAC6 genes into Sf-9 insect cells; GST; purchased SignalChem; host or cells: Sf-9 insect cells
# Experimental details: HDAC1/6 Enzyme Inhibitory Assay (HDAC-Glo I/II Assay kit), HDAC1
# Type: biochemical
# Condition info: 1 μM test compound; wells without enzyme = 100% inhibition; 1 µM
Reported metric: HDAC1 inhibitory rate (%) (1 μM)

INSERT INTO results (compound, readout_value) VALUES
  ('O=C(N[C@@H]1CCCC[C@H]1N1Cc2ccc(-c3noc(C(F)(F)F)n3)cc2C1=O)N1CC2CC1CO2 (stereo partly shown) [Example 157]', '−2'),
  ('O=C1CCCN1[C@@H]1COCC[C@H]1N1Cc2ccc(-c3noc(C(F)(F)F)n3)cc2C1=O', 13),
  ('O=C1CCCN1[C@@H]1CCOC[C@H]1N1Cc2ccc(-c3noc(C(F)(F)F)n3)cc2C1=O [Example 182]', 10),
  ('CC1(C(=O)N[C@@H]2CCCC[C@H]2N2Cc3ccc(-c4noc(C(F)(F)F)n4)cc3C2=O)CC1(F)F (stereo partly shown) [Example 171]', 9),
  ('O=C(N[C@@H]1CCOC[C@@H]1N1Cc2ccc(-c3noc(C(F)(F)F)n3)cc2C1=O)C1CC1(F)F (single isomer, unassigned) [Example 211]', '−1');

(I) O=C1c2cc(-c3noc(C(F)(F)F)n3)ccc2CN1[C@@H]1CCOC[C@H]1c1ccccc1 (relative stereo) [Example 34]
(II) O=C(N[C@@H]1CCCC[C@H]1N1Cc2ccc(-c3noc(C(F)(F)F)n3)cc2C1=O)C1CCCCCO1 (stereo partly shown) [Example 119]
Prompt line: I'm curious, which of these has a smaller HDAC1 inhibitory rate (%) (1 μM) number: I or II ? Returns: label corresponding to the selected item.
Response line: II
(II: 4%, I: 90%)

====

# Target: HDAC9 enzyme (Homo sapiens)
# Construct: transducing full length HDAC9 gene into Sf-9 insect cells; made in house; host or cells: Sf-9 insect cells
# Experimental details: HDAC9 Enzyme Inhibitory Assay (HDAC-Glo class IIa)
# Assay type: biochemical
# Condition info: 1 μM test compound; wells without enzyme = 100% inhibition; read-out: HDAC9 inhibitory rate (%) (1 μM)
Reported metric: inhibition at 1 µM (%)

As a guide, the following entries are already answered.
INSERT INTO assay_data (molecule, readout_value) VALUES
  ('O=C(N[C@@H]1CCOC[C@H]1N1Cc2ccc(-c3noc(C(F)(F)F)n3)cc2C1=O)[C@H]1CCOC1', 53),
  ('COc1ccc([C@@H]2CNCC[C@H]2N2Cc3ccc(-c4noc(C(F)(F)F)n4)cc3C2=O)cc1 (relative stereo)', 99),
  ('Cc1ccc([C@@H]2CNCC[C@H]2N2Cc3ccc(-c4noc(C(F)(F)F)n4)cc3C2=O)cc1Cl (relative stereo)', 99),
  ('O=C1c2cc(-c3noc(C(F)(F)F)n3)ccc2CN1[C@@H]1CCNC[C@H]1c1ccc(F)cc1 (relative stereo)', 99),
  ('CC(C)(C)OC(=O)N[C@@H]1CCCC[C@@H]1N1Cc2ccc(-c3noc(C(F)(F)F)n3)cc2C1=O (relative stereo)', 66);

(I) N#CC1(C(=O)N[C@@H]2CCCC[C@H]2N2Cc3ccc(-c4noc(C(F)(F)F)n4)cc3C2=O)CC1
(II) O=C1C[C@@H](C(=O)N[C@@H]2CCCC[C@H]2N2Cc3ccc(-c4noc(C(F)(F)F)n4)cc3C2=O)N1
Prompt line: Lab note: check whether I or II shows the higher recorded inhibition at 1 µM. Returns: label corresponding to the selected item.
Response line: I
(I: 67%, II: 42%)

====

# Target: HDAC1 enzyme (Homo sapiens)
# Construct: transducing full length HDAC1 and HDAC6 genes into Sf-9 insect cells; GST; purchased SignalChem; host or cells: Sf-9 insect cells
# Experimental details: HDAC1/6 Enzyme Inhibitory Assay (HDAC-Glo I/II Assay kit), HDAC1
# Type: biochemical
# Condition info: 1 μM test compound; wells without enzyme = 100% inhibition; read-out: HDAC1 inhibitory rate (%) (1 μM)
Reported metric: inhibition at 1 µM (%)

INSERT INTO measurements (compound, target, reported_metric, readout_value) VALUES
  ('N[C@H]1CCCC[C@@H]1N1Cc2ccc(-c3noc(C(F)(F)F)n3)cc2C1=O', 'HDAC1 enzyme (Homo sapiens)', 'inhibition at 1 µM', -2),
  ('CC1(C(=O)N[C@@H]2CCC[C@H]2N2Cc3ccc(-c4noc(C(F)(F)F)n4)cc3C2=O)COC1', 'HDAC1 enzyme (Homo sapiens)', 'inhibition at 1 µM', 16),
  ('O=C(Cc1ccc(F)cc1)N1CCC(N2Cc3ncc(-c4noc(C(F)(F)F)n4)cc3C2=O)CC1', 'HDAC1 enzyme (Homo sapiens)', 'inhibition at 1 µM', 35),
  ('O=C1CCCN1[C@@H]1COCC[C@H]1N1Cc2ccc(-c3noc(C(F)(F)F)n3)cc2C1=O', 'HDAC1 enzyme (Homo sapiens)', 'inhibition at 1 µM', 8);

(I) O=C(N[C@@H]1CCCC[C@H]1N1Cc2ccc(-c3noc(C(F)(F)F)n3)cc2C1=O)C1CC1 [Example 32]
(II) O=C1CCCN1[C@H]1COCC[C@@H]1N1Cc2ccc(-c3noc(C(F)(F)F)n3)cc2C1=O
(III) CC(C)(C)OC(=O)N1CC[C@@H](c2ccccc2)[C@H](N2Cc3cc(-c4noc(C(F)(F)F)n4)ccc3C2=O)C1 (relative stereo)
Prompt line: Sequence the entries by inhibition at 1 µM, beginning with the highest number. Lab note: record answer as labels in requested order.
Response line: III, I, II
(III: 9%, I: 5%, II: 2%)
